Kindly state z-score for each of the entries shown.
# test details: FRG1 expression reporter modulators in myotubes – cell-based, C2C12 myotubes, firefly/Renilla luciferase, luminescence, FRG1 inhibition for FSHD, primary screen (AID 1084)
# experimental conditions: FRG1 promoter luciferase, higher = more signal, called active from +8 up or from −8 down
Active and inactive are the calls of the source.

Tell me the measured z-score of COc1ccc(C(O)C2C=CC3C(=O)N(c4ccccc4)C(=O)C3N2Nc2ccccc2)c2ccccc12 (configuration not stated) , please.
-0.0953 (inactive)

Requested field: z-score. Item: Cc1ccc(S(=O)(=O)N2CC(C(=O)O)=CCC2c2ccccc2)cc1 (configuration not stated)
-1.03 (inactive)

What value of z-score has been reported for the following molecule? C[N+](C)(C)CCCC[C@@H]1NC(=O)[C@H]2C[C@@H](C(=O)O)[C@@H](c3cccc(OCCO)c3)N2C1=O
-0.698 (inactive)

What value of z-score has been reported for the following molecule? C=CCOC(=O)[C@@H]1[C@H]2C(=O)O[C@H](c3ccccc3)[C@H](c3ccccc3)N2[C@H](c2ccc(OCCOC(=O)[C@H]3C[C@H]4C(=O)N[C@@H](Cc5ccccc5)C(=O)N4[C@H]3c3ccc(O)cc3)cc2)[C@@]12C(=O)Nc1ccc(I)cc12
1.16 (inactive)

Field request: z-score | item: COC(=O)c1c(CC[C@@H](CO)NC(=O)Nc2ncn[nH]2)oc(C(=O)Cc2ccccc2)c1C(=O)OC
0.004 (inactive)

Fill blank: measured z-score of the molecule CCCC[C@H]1OB(O)C[C@H]2C1=C(C)Cn1c(=O)n(-c3ccccc3)c(=O)n12 is ____.
-0.127 (inactive)

Looking for the measured z-score of C=C(CCCC)C(=O)CC[C@H](OC(=O)c1ccccc1-c1ccccc1C(=O)O)c1ccc(CO)o1 , can you help?
-0.225 (inactive)
